- Test system: HGGX6 (H3.3 G34R paediatric high-grade glioma line)
- assay: area under dose-response curve of % growth inhibition (log2 RLU vs DMSO / staurosporine), 1e-11 to 1e-4 M (% x log10 M); higher = more growth inhibition
// values below are reported area under dose-response curve
quantityKind: area under dose-response curve

INSERT INTO measurements (compound, tgt, observedmeasurement) VALUES
  ('C=CCNC1=C2C[C@@H](C)C[C@H](OC)[C@H](O)[C@@H](C)/C=C(\C)[C@H](OC(N)=O)[C@@H](OC)/C=C\C=C(/C)C(=O)NC(=CC1=O)C2=O', 'HGGX6', 59.6),
  ('COc1cc(F)ccc1-c1ncnc(Nc2cccc(CS(C)(=N)=O)c2)n1 (configuration not stated)', 'HGGX6', 121),
  ('[O-][n+]1ccccc1[S-].[O-][n+]1ccccc1[S-].[Zn+2]', 'HGGX6', 116),
  ('CC1CS(=O)(=O)CCN1/N=C/c1ccc([N+](=O)[O-])o1 (configuration not stated)', 'HGGX6', 22),
  ('CO[C@@]12[C@H](COC(N)=O)C3=C(C(=O)C(C)=C(N)C3=O)N1C[C@@H]1N[C@@H]12', 'HGGX6', 75.4),
  ('CCN1CCN(Cc2ccc(Nc3ncc(F)c(-c4cc(F)c5nc(C)n(C(C)C)c5c4)n3)nc2)CC1', 'HGGX6', 127),
  ('CN(Cc1cnc2nc(N)nc(N)c2n1)c1ccc(C(=O)N[C@@H](CCC(=O)O)C(=O)O)cc1 [METHOTREXATE]', 'HGGX6', 58.8);

----------
- System: DIPGX9 (diffuse intrinsic pontine glioma line)
- assay: maximal growth inhibition (yFin) relative to DMSO / staurosporine; higher = more efficacious
quantityKind: maximal growth inhibition (%)

INSERT INTO assay_data (smi, observedmeasurement) VALUES
  ('C=CCn1c(=O)c2cnc(Nc3ccc(N4CCN(C)CC4)cc3)nc2n1-c1cccc(C(C)(C)O)n1', 41.4),
  ('C[C@@]12OC(=O)[C@]1([C@@H](O)[C@@H]1C=CCCC1)NC(=O)[C@@H]2CCCl', 101),
  ('CCN(CC)CCNC(=O)c1c(C)[nH]c(/C=C2\C(=O)Nc3ccc(F)cc32)c1C', 117),
  ('Cc1c(C2CCN(CCc3ccccc3)CC2)noc1-c1ccc(Cl)cc1', 22.2),
  ('CC(C)(C)c1cnc(CSc2cnc(NC(=O)C3CCNCC3)s2)o1', 104),
  ('O=C(c1ccc(Nc2nccc(-c3cc4ccccc4s3)n2)cc1)N1CCC(N2CCCC2)CC1', 122),
  ('CC(C)C[C@H](NC(=O)[C@H](CCc1ccccc1)NC(=O)CN1CCOCC1)C(=O)N[C@@H](Cc1ccccc1)C(=O)N[C@@H](CC(C)C)C(=O)[C@@]1(C)CO1', 115),
  ('CN(C)C/C=C/C(=O)Nc1ccc(C(=O)Nc2cccc(Nc3ncc(Cl)c(-c4c[nH]c5ccccc45)n3)c2)cc1', 88.7),
  ('CC(C)(C)OC(=O)Nc1ccc(-c2cc(C(=O)NCCCCCCC(=O)NO)no2)cc1', 97.6),
  ('CCCCc1oc2ccc(NS(C)(=O)=O)cc2c1C(=O)c1ccc(OCCCN(CCCC)CCCC)cc1', 123),
  ('CC(C)c1cc(C(=O)N2Cc3ccc(CN4CCN(C)CC4)cc3C2)c(O)cc1O', 94.9),
  ('O=C1NC(=O)C(c2cnc3ccccn23)=C1c1cn2c3c(cc(F)cc13)CN(C(=O)N1CCCCC1)CC2', 97.2);

----------
- Test system: HGGX6
- assay: maximal growth inhibition (yFin) relative to DMSO / staurosporine; higher = more efficacious
// values below are reported maximal growth inhibition
quantityKind: maximal growth inhibition (%)

INSERT INTO assay_data (compound, tgt, quantitykind, unitabbrev, observedmeasurement) VALUES
  ('Clc1ccc(COC(Cn2ccnc2)c2ccc(Cl)cc2Cl)c(Cl)c1 (configuration not stated) [MICONAZOLE]', 'HGGX6', 'maximal growth inhibition', '%', 41.5),
  ('C[C@@H](NCCCc1cccc(C(F)(F)F)c1)c1cccc2ccccc12 [CINACALCET]', 'HGGX6', 'maximal growth inhibition', '%', 84.4),
  ('CCCCC(CC)CNC(=N)NC(=N)NCCCCCCNC(=N)NC(=N)NCC(CC)CCCC (configuration not stated) [ALEXIDINE]', 'HGGX6', 'maximal growth inhibition', '%', 73.3),
  ('COc1cc2nc(N3CCN(C(=O)c4ccco4)CC3)nc(N)c2cc1OC [PRAZOSIN]', 'HGGX6', 'maximal growth inhibition', '%', 75),
  ('NC1CCC(Nc2cc(-c3cccc(NCc4cccc(F)c4)n3)c(Cl)cn2)CC1 (configuration not stated) [CDK9-IN-2]', 'HGGX6', 'maximal growth inhibition', '%', 67.1),
  ('CN(C(=O)CN(CCO)CC(=O)N(C)C(C)(C)Cc1ccccc1)C(C)(C)Cc1ccccc1 [OXETHAZAINE]', 'HGGX6', 'maximal growth inhibition', '%', 47.3),
  ('C=CCn1c(=O)c2cnc(Nc3ccc(N4CCN(C)CC4)cc3)nc2n1-c1cccc(C(C)(C)O)n1 [MK-1775]', 'HGGX6', 'maximal growth inhibition', '%', 24.9),
  ('Cc1ccc(C(=O)Nc2ccc(Oc3cc4cnn(C)c4cc3-c3cn[nH]c3)c(F)c2)c(=O)n1-c1ccc(F)cc1', 'HGGX6', 'maximal growth inhibition', '%', 25.3),
  ('Cc1cc(C2CCCCC2)n(O)c(=O)c1 [CICLOPIROX]', 'HGGX6', 'maximal growth inhibition', '%', 63.9),
  ('O=C1COc2c(CCNCCN(C(=O)CCNCCc3ccc(Cl)c(Cl)c3)C3CCCCC3)ccc(O)c2N1 [AZ505]', 'HGGX6', 'maximal growth inhibition', '%', 74.2),
  ('CN1CCN(CCCN2c3ccccc3Sc3ccc(C(F)(F)F)cc32)CC1 [TRIFLUOPERAZINE]', 'HGGX6', 'maximal growth inhibition', '%', 80.2),
  ('Clc1ccc(C(Cn2ccnc2)OCc2csc3c(Cl)cccc23)c(Cl)c1 (configuration not stated) [SERTACONAZOLE]', 'HGGX6', 'maximal growth inhibition', '%', 62.2),
  ('Clc1ccc(CCC(Cn2ccnc2)Sc2c(Cl)cccc2Cl)cc1 (configuration not stated) [BUTOCONAZOLE]', 'HGGX6', 'maximal growth inhibition', '%', 47.6),
  ('CC(C)n1c(/C=C/C(O)CC(O)CC(=O)O)c(-c2ccc(F)cc2)c2ccccc21 (configuration not stated) [FLUVASTATIN]', 'HGGX6', 'maximal growth inhibition', '%', 26.8),
  ('CC(C)c1cc(-c2n[nH]c(=O)n2-c2ccc3c(ccn3C)c2)c(O)cc1O [GANETESPIB]', 'HGGX6', 'maximal growth inhibition', '%', 39.8),
  ('CCOC(=O)C1=C(C)NC(C)=C(C(=O)OCC)C1c1ccccc1/C=C/C(=O)OC(C)(C)C [LACIDIPINE]', 'HGGX6', 'maximal growth inhibition', '%', 74.3),
  ('c1ccc(-c2ccc(C(c3ccccc3)n3ccnc3)cc2)cc1 (configuration not stated) [BIFONAZOLE]', 'HGGX6', 'maximal growth inhibition', '%', 20.1),
  ('COc1c(C)c2c(c(O)c1C/C=C(\C)CCC(=O)OCCN1CCOCC1)C(=O)OC2 [MYCOPHENOLATE MOFETIL]', 'HGGX6', 'maximal growth inhibition', '%', 20),
  ('CN(C)c1ccc(C(=C2C=CC(=[N+](C)C)C=C2)c2ccc(N(C)C)cc2)cc1 [GENTIAN VIOLET]', 'HGGX6', 'maximal growth inhibition', '%', 112),
  ('CC(C)N(CCCNC(=O)Nc1ccc(C(C)(C)C)cc1)C[C@H]1O[C@@H](n2cc(Br)c3c(N)ncnc32)[C@H](O)[C@@H]1O [SGC0946]', 'HGGX6', 'maximal growth inhibition', '%', 43),
  ('N#CC[C@H](C1CCCC1)n1cc(-c2ncnc3[nH]ccc23)cn1 [RUXOLITINIB]', 'HGGX6', 'maximal growth inhibition', '%', 21.7),
  ('O=C1[C@H](Cc2ccc(O)cc2)N2C(=O)CCN(C(=O)NCc3ccccc3)[C@H]2CN1Cc1cccc2ccccc12 [ICG001]', 'HGGX6', 'maximal growth inhibition', '%', 31.8),
  ('Clc1ccccc1C(c1ccccc1)(c1ccccc1)n1ccnc1 [CLOTRIMAZOLE]', 'HGGX6', 'maximal growth inhibition', '%', 26.3),
  ('C[C@H]1[C@H](OC(=O)CCC(=O)O)O[C@@H]2O[C@@]3(C)CC[C@H]4[C@H](C)CC[C@@H]1[C@@]24OO3 [ARTESUNATE]', 'HGGX6', 'maximal growth inhibition', '%', 22.2),
  ('Nc1cc(C(F)(F)F)c(-c2cc(N3CCOCC3)nc(N3CCOCC3)n2)cn1 [BUPARLISIB]', 'HGGX6', 'maximal growth inhibition', '%', 21.8),
  ('N#CN=C(NCCCCCCOc1ccc(Cl)cc1)Nc1ccncc1 [GMX-1778]', 'HGGX6', 'maximal growth inhibition', '%', 74.7),
  ('CN1CCCN(C(=O)c2cccc(-c3ccc(/C=C4/C(=O)Nc5ccc(Cl)cc54)o3)c2)CC1 [CX-6258]', 'HGGX6', 'maximal growth inhibition', '%', 106),
  ('CC(=O)OC[C@H]1O[C@@H]([S-])[C@H](OC(C)=O)[C@@H](OC(C)=O)[C@@H]1OC(C)=O.CCP(CC)CC.[Au+] [AURANOFIN]', 'HGGX6', 'maximal growth inhibition', '%', 92.2),
  ('CN(C)C/C=C/C(=O)Nc1ccc(C(=O)Nc2cccc(Nc3ncc(Cl)c(-c4c[nH]c5ccccc45)n3)c2)cc1 [THZ1]', 'HGGX6', 'maximal growth inhibition', '%', 81.5),
  ('COc1cc(OC2CCN(C)CC2)ccc1Nc1ncc2c(n1)n(C1CCCC1)c(=O)n2C [AZ3146]', 'HGGX6', 'maximal growth inhibition', '%', 96.5),
  ('CC(C)c1cc(C(=O)N2Cc3ccc(CN4CCN(C)CC4)cc3C2)c(O)cc1O', 'HGGX6', 'maximal growth inhibition', '%', 34.9),
  ('C[C@@H]1O[C@@H](O[C@H]2C[C@@H](O)[C@]3(CO)[C@H]4[C@H](O)C[C@]5(C)[C@@H](C6=CC(=O)OC6)CC[C@]5(O)[C@@H]4CC[C@]3(O)C2)[C@H](O)[C@H](O)[C@H]1O [OUABAIN]', 'HGGX6', 'maximal growth inhibition', '%', 64.9);
